IC50 values for the molecules below.
tested.on: β-lactamase produced by Enterobacter cloacae IFO 12937 (Enterobacter cloacae)
Construct: The β-lactamase produced by Enterobacter cloacae IFO 12937; endogenous in cells; host or cells: Enterobacter cloacae IFO 12937
Sequence (P05364 21-381): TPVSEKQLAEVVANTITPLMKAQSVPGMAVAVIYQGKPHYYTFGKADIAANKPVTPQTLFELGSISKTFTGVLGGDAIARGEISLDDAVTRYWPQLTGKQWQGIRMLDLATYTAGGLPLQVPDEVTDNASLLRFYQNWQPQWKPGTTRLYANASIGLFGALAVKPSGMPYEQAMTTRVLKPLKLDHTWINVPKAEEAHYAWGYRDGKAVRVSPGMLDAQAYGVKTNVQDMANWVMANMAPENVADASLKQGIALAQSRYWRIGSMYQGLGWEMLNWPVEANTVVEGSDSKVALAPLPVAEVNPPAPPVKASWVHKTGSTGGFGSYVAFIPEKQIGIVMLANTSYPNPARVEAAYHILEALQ
assay.explanation: Inhibitor concentration required to inhibit β-lactamase (cephalosporinase) activity by 50%, micro-iodometric method
Format: biochemical
cond: Enterobacter cloacae IFO 12937 cephalosporinase; 0.05M phosphate buffer pH 7, 30° C., 10 minutes preincubation; cephalothin or ampicillin 0.1 mM; read-out: I50 (converted)
readout.type: IC50 (µM)

> print(dat)
                                   molecule                                 tested.on  units  recorded.value
1  CON=C(C(=O)NC1CN(S(=O)(=O)O)C1=O)c1csc(NS(=O)(=O)O)n1 (centres unmarked) [Compound 29]  β-lactamase produced by Enterobacter cloacae IFO 12937 (Enterobacter cloacae)     µM           0.163
2  COC1(NC(=O)C(=NOC(C)C)c2csc(N)n2)CN(S(=O)(=O)O)C1=O (centres unmarked) [Compound 36]  β-lactamase produced by Enterobacter cloacae IFO 12937 (Enterobacter cloacae)     µM          0.0565
3  COC1(NC(=O)[C@H](NC(=O)N2CCN(C(C)(C)C)C(=O)C2=O)c2cccs2)CN(S(=O)(=O)O)C1=O (some centres unmarked) [Compound 40]  β-lactamase produced by Enterobacter cloacae IFO 12937 (Enterobacter cloacae)     µM           0.124
4  COC1(NC(=O)[C@H](NC(=O)N2CCN(c3ccccc3)C(=O)C2=O)c2cccs2)CN(S(=O)(=O)O)C1=O (some centres unmarked) [Compound 39]  β-lactamase produced by Enterobacter cloacae IFO 12937 (Enterobacter cloacae)     µM           0.127
5  CON=C(C(=O)NC1CN(S(=O)(=O)O)C1=O)c1nc(NC(=O)CCl)sc1Cl (centres unmarked)  β-lactamase produced by Enterobacter cloacae IFO 12937 (Enterobacter cloacae)     µM           0.622
6  COC1(NC(=O)[C@H](NC(=O)N2CCN(N=Cc3ccco3)C2=O)c2ccccc2)CN(S(=O)(=O)O)C1=O (some centres unmarked) [Compound 3]  β-lactamase produced by Enterobacter cloacae IFO 12937 (Enterobacter cloacae)     µM           0.617
7  CON=C(C(=O)NC1CN(S(=O)(=O)O)C1=O)c1csc(N)n1 (centres unmarked) [Compound 12]  β-lactamase produced by Enterobacter cloacae IFO 12937 (Enterobacter cloacae)     µM            4.01
8  COC1(NC(=O)OCc2ccccc2)CN(S(=O)(=O)O)C1=O (centres unmarked) [Compound 30]  β-lactamase produced by Enterobacter cloacae IFO 12937 (Enterobacter cloacae)     µM            15.1

Numbers sourced from patent US4725591A.
